assay: Transdermal delivery of melatonin: plasma level of melatonin after applying composition to skin of a subject; conditions: human, plasma, topical, 3 mg, Plasma level of melatonin, Tyrosine isopropyl ester 269.50 mM, 0.30 mL applied to skin, 0 hr after transdermal administration
QUANTITY_MEASURED: concentration at 0 hr

(Q) Provide one value: measured concentration at 0 hr of COc1ccc2[nH]cc(CCNC(C)=O)c2c1
(A) 0 ng/mL

====

assay: Transdermal delivery of melatonin: plasma level of melatonin after applying composition to skin of a subject; conditions: human, plasma, topical, 3 mg, Plasma level of melatonin, salt of tryptophan isopropyl ester, A− = AcO^−, 228.48 mM, 0.30 mL applied, 4 hr after transdermal administration
QUANTITY_MEASURED: concentration at 4 h (ng/mL)
Report the figure in ng/mL without appending any unit label.

(Q) Provide one value: measured concentration at 4 h of COc1ccc2[nH]cc(CCNC(C)=O)c2c1 [Melatonin]
(A) 2.1
